test system: T-47D breast; assay: NCI tumour cell line growth inhibition, 48 h
experimental-readout: TGI

Would you please look over these solved cases?
CCc1c2c(nc3ccc(OC(=O)NCc4ccc(B5OC(C)(C)C(C)(C)O5)cc4)cc13)-c1cc3c(c(=O)n1C2)COC(=O)[C@]3(O)CC	> 100 µM
CCOc1ccc(NC(=O)C(=O)C2C(=O)Nc3ccccc3S2=O)cc1 (stereo unspecified)	> 100 µM
NC(=O)c1c2c(n3ccccc13)C(=O)c1ccccc1C2=O	> 100 µM
C/C=C(\C)C(=O)O[C@H]1C=CC(=O)O[C@H]1CC[C@H](O)[C@H](C)O	10.8 µM
COc1ccc2nc3c([N+](=O)[O-])ccc4c3c(c2c1)N(CCCN(C)C)C(=S)N4CCCN(C)C	43 µM

If you can, please state the reported TGI value of O=C(COc1cccc(/C=C2/Oc3ccccc3C2=O)c1)Nc1nccs1 .
58.5 µM

If you can, please state the reported TGI value of Nc1ccc2nc3n(c(=O)c2c1)CCCCC3 .
> 100 µM

If you can, please state the reported TGI value of N#Cc1cc(-c2nc3ccc(F)cc3s2)ccc1N .
> 100 µM

====

system: SF-539 CNS; assay: NCI tumour cell line growth inhibition, 48 h; in the data active means GI50 below about 0.43 µM; inactive means the rest
Respond using exactly one of the listed classes: YES for active, NO for inactive

Use these answered entries as a reference point.
[Co+2].[O-]c1ccccc1C=NCc1ccccc1.[O-]c1ccccc1C=NCc1ccccc1	NO
CC(=O)CC(=O)Nc1c(C)[c]([Hg][O]C(C)=O)c(C)[c]([Hg][O]C(C)=O)[c]1[Hg][O]C(C)=O	NO
CCOc1ccc2nc(S/C(=C/C=C(C#N)C#N)c3ccc(Cl)cc3)sc2c1	NO
O=C1c2ccccc2C(=O)c2c1ccc(C(Br)Br)c2Cl	NO
COc1cc(C2C3=C(COC3=O)Oc3cc4c(cc32)OCO4)cc(OC)c1OC (stereo unspecified)	YES
Cc1cc(C)c(C#N)c(SCC(=O)c2sc3c(C#N)c(C)cc(C)[n+]3c2[O-])n1	YES
COc1ccc(C(=O)n2nc(/C=C/c3ccc(O)c(OC)c3)cc2/C=C/c2ccc(O)c(OC)c2)cc1	YES
CCc1c2c(nc3ccc(OC(=O)NCc4ccc(B5OC(C)(C)C(C)(C)O5)cc4)cc13)-c1cc3c(c(=O)n1C2)COC(=O)[C@]3(O)CC	YES

Tell me the recorded outcome of this test for CCOC(=O)c1ccc2[nH]c(O)c(C(=Nc3ccc(N(C)C(=O)CN4CCN(C)CC4)cc3)c3ccccc3)c2c1 .
YES

Tell me the recorded outcome of this test for CCN(CC)CCOc1nc2c3ccc(Cl)cc3nn2c2ccccc12 .
NO

Tell me the recorded outcome of this test for CN1C(=O)/C(=C/c2c(Cl)[nH]c3ccccc23)c2ccccc21 .
NO

Tell me the recorded outcome of this test for CN1C(=O)CC2(C)c3cc(O)ccc3N(C)C12 (stereo unspecified) .
NO

Tell me the recorded outcome of this test for O=C1/C(=C/c2ccc(O)c(O)c2)COc2ccc(-c3ccccc3)cc21 .
NO

Tell me the recorded outcome of this test for CN1C(=O)N(C)C2C1NN=c1s/c(=C\c3ccccc3F)c(=O)n12 (stereo unspecified) .
YES

Tell me the recorded outcome of this test for Cc1ccc(S(=O)(=O)NC2=NCCN2C(=S)SN2CCn3c2nsc3=S)cc1 .
NO

Tell me the recorded outcome of this test for CC(C)CCC[C@@H](C)[C@H]1CCC2C3=CCn4c(=O)ccc(=O)n4C3CC[C@@]21C (stereo partly specified) .
NO

These measurements were taken from PubChem BioAssay (NCI).
